- system-under-test: Lipoxygenase (Glycine max)
- run-description: Inhibition of soybean LOX assessed as reduction in conversion of sodium linoleate to 13-hydroperoxylinoleic acid at 100 uM by UV spectroscopy
Rule: y for inhibition not less than 30%, n for anything less.

• COc1ccc(-c2c(C)c3ccccc3oc2=S)cc1 = y
• COc1ccc(-c2c(C)c3cc(-c4ccc(C=O)cc4)ccc3oc2=O)cc1OC = n

INPUT: Reported inhibition at or above 30%? `COc1ccc(-c2c(C)c3cc(Br)ccc3o/c2=N/Nc2ccccc2)cc1OC`
OUTPUT: n

INPUT: inhibition >= 30% for `O=c1oc2ccc(Br)cc2cc1-c1ccc(O)c(O)c1` ?
OUTPUT: n

INPUT: Item `Cc1c(-c2ccc(O)c(O)c2)c(=O)oc2c(Br)cc(Br)cc12` with inhibition of 30% or above?
OUTPUT: n

INPUT: API: above_or_equal(metric=inhibition, cutoff=30%) for item `COc1ccc(-c2ccc3oc(=O)c(-c4ccc(OC)c(OC)c4)c(C)c3c2)cc1`
OUTPUT: y

----------
- system-under-test: Lipoxygenase (Glycine max, UniProt Q39829)
- run-description: Inhibition of soybean LOX assessed as reduction in conversion of sodium linoleate to 13-hydroperoxylinoleic acid by UV spectroscopy
- condition-info: read-out: IC50
Measured pIC50, listed per entry.
// scale note: pIC50 = -log10(conc_M); give the bare number

Examples with their reported pIC50 follow.
* CC(C)=CCOc1ccc(-c2c(C)c3cc(Br)cc(Br)c3oc2=O)cc1OCC=C(C)C | 4.43
* CC(C)=CCOc1ccc(-c2c(C)c3cc(Br)ccc3oc2=O)cc1OCC=C(C)C | 4.12
* Cc1c(-c2ccc(O)c(O)c2)c(=S)oc2ccc(Br)cc12 | 4.05
* COc1ccc(-c2c(C)c3cc(Br)ccc3oc2=S)cc1OC | 4.19
* Cc1c(-c2ccc(O)c(O)c2)c(=O)oc2ccc(Br)cc12 | 4.12

Recorded pIC50 (compound `COc1ccc(-c2cc3cc(Br)ccc3oc2=O)cc1OC` ): 4.09

The recorded pIC50 for CC(Cc1ccc(O)c(O)c1)C(C)Cc1ccc(O)c(O)c1 (stereo not drawn) [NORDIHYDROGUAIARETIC ACID] is 4.29

pIC50 in this record for `CC(C)=CCOc1ccc(-c2cc3cc(Br)ccc3oc2=O)cc1OCC=C(C)C` : 4.40

----------
- run-description: Antioxidant activity assessed as DPPH radical scavenging activity at 100 uM after 60 mins by spectrophotometry
- Type: physicochemical
- condition-info: 1 h
readout-type: inhibition (INH) (%)
The figure you give is taken to be in %; do not add the unit.

Just so you know, measured inhibition (INH) for `Cc1c(-c2ccc(O)c(O)c2)c(=O)oc2ccc(Br)cc12` came out at 62

Looking up `CC(C)=CCOc1ccc(-c2c(C)c3cc(Br)cc(Br)c3oc2=O)cc1OCC=C(C)C` , I found its inhibition (INH) recorded as 9

Lookup result for `COc1ccc(-c2c(C)c3ccccc3o/c2=N/Nc2ccccc2)cc1` ; measured inhibition (INH): 85

molecule `COc1ccc(-c2c(C)c3cc(Br)cc(Br)c3oc2=O)cc1OC` , inhibition (INH) observed: 2

// field: inhibition (INH); key: `COc1ccc(-c2c(C)c3cc(-c4ccc(C=O)cc4)ccc3oc2=O)cc1OC` ; value = 68

Lab note: measured inhibition (INH) of `COc1ccc(-c2c(C)c3cc(Br)ccc3o/c2=N/Nc2ccccc2)cc1OC` was 86

----------
- run-description: Antioxidant activity assessed as DPPH radical scavenging activity at 100 uM after 60 mins by spectrophotometry
- Type: physicochemical
- condition-info: 1 h
Mark criterion not met for inhibition (INH) values under 70%, and criterion met for everything at or above.

Recorded results for 6 molecules are shown here.
* Cc1c(-c2ccc(O)c(O)c2)c(=S)oc2ccc(Br)cc12 | criterion not met
* O=c1oc2ccc(Br)cc2cc1-c1ccc(O)c(O)c1 | criterion met
* CC(Cc1ccc(O)c(O)c1)C(C)Cc1ccc(O)c(O)c1 (stereo unspecified) [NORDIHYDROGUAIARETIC ACID] | criterion met
* COc1ccc(-c2c(C)c3cc(Br)ccc3oc2=S)cc1OC | criterion not met
* COc1ccc(-c2cc3cc(Br)ccc3oc2=O)cc1OC | criterion not met
* COc1ccc(-c2c(C)c3cc(Cl)ccc3oc2=S)cc1OC | criterion not met

# next molecule below
INPUT: Please tell me: is the molecule `Cc1c(-c2ccc(O)c(O)c2)c(=O)oc2c(Br)cc(Br)cc12` at or over 70% in terms of inhibition (INH)?
OUTPUT: criterion met

----------
Entries and their measured inhibition (INH) follow.
- run-description: Antioxidant activity assessed as DPPH radical scavenging activity at 100 uM after 20 mins by spectrophotometry
- Assay type: physicochemical
Response body: numeric value in %, unit text excluded.

Past entries and their recorded results:
- COc1ccc(-c2c(C)c3cc(Br)cc(Br)c3oc2=O)cc1OC: 13
- CC(C)=CCOc1ccc(-c2c(C)c3cc(Br)ccc3oc2=O)cc1OCC=C(C)C: 67
- COc1ccc(-c2c(C)c3cc(Br)ccc3o/c2=N/Nc2ccccc2)cc1OC: 85
- COc1ccc(-c2c(C)c3ccccc3o/c2=N/Nc2ccccc2)cc1: 84
- O=c1oc2ccc(Br)cc2cc1-c1ccc(O)c(O)c1: 78
- COc1ccc(-c2c(C)c3cc(Br)ccc3oc2=S)cc1OC: 26
- Cc1c(-c2ccc(O)c(O)c2)c(=O)oc2ccc(Br)cc12: 77
- COc1ccc(-c2cc3cc(Br)ccc3oc2=O)cc1OC: 11

Briefly, inhibition (INH) measured for CC(Cc1ccc(O)c(O)c1)C(C)Cc1ccc(O)c(O)c1 (configuration not stated) [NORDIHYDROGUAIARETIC ACID] : 84

The compound `COc1ccc(-c2c(C)c3ccccc3oc2=S)cc1` showed inhibition (INH) equal to 14

`COc1ccc(-c2c(C)c3cc(-c4ccc(C=O)cc4)ccc3oc2=O)cc1OC` yielded inhibition (INH) of 11

GET /value?item= `Cc1c(-c2ccc(O)c(O)c2)c(=S)oc2ccc(Br)cc12` &field=inhibition (INH) returns 41

The measured inhibition (INH) associated with `Cc1c(-c2ccc(O)c(O)c2)c(=O)oc2c(Br)cc(Br)cc12` reads 76

Per the records, this compound ( `COc1ccc(-c2ccc3oc(=O)c(-c4ccc(OC)c(OC)c4)c(C)c3c2)cc1` ) has inhibition (INH) equal to 17

----------
- run-description: Antioxidant activity assessed as inhibition of AAPH-induced linoleic acid lipid peroxidation at 100 uM
- Format: physicochemical
Recorded inhibition (INH) for the following molecules
Numeric only. Scale: %

Look over these answered cases.
- COc1ccc(-c2c(C)c3ccccc3oc2=S)cc1: 11
- COc1ccc(-c2c(C)c3cc(Br)cc(Br)c3oc2=O)cc1OC: 58
- Cc1c(-c2ccc(O)c(O)c2)c(=O)oc2ccc(Br)cc12: 75

So for `COc1ccc(-c2c(C)c3cc(Br)ccc3o/c2=N/Nc2ccccc2)cc1OC` , the logged inhibition (INH) turned out to be 55

The reported value for `COc1ccc(-c2cc3cc(Br)ccc3oc2=O)cc1OC` in terms of inhibition (INH) is 56

Kindly note the recorded inhibition (INH) for `Cc1c(-c2ccc(O)c(O)c2)c(=O)oc2c(Br)cc(Br)cc12` , which is 75

molecule `COc1ccc(-c2c(C)c3cc(Br)ccc3oc2=S)cc1OC` , inhibition (INH) observed: 96

Documented inhibition (INH) of `COc1ccc(-c2c(C)c3cc(-c4ccc(C=O)cc4)ccc3oc2=O)cc1OC` : 64

# molecule `CC(C)=CCOc1ccc(-c2c(C)c3cc(Br)cc(Br)c3oc2=O)cc1OCC=C(C)C` ; its inhibition (INH) = 100

Per the record, `COc1ccc(-c2ccc3oc(=O)c(-c4ccc(OC)c(OC)c4)c(C)c3c2)cc1` has inhibition (INH) of 7

inhibition (INH) in this record for `COc1ccc(-c2c(C)c3ccccc3o/c2=N/Nc2ccccc2)cc1` : 47

Recorded result, `Cc1c(-c2ccc(O)c(O)c2)c(=S)oc2ccc(Br)cc12` , inhibition (INH): 59

Please fill in: inhibition (INH) reported for `COc1ccc(-c2c(C)c3cc(Cl)ccc3oc2=S)cc1OC` = 50

Summary for this molecule, `CC(C)=CCOc1ccc(-c2cc3cc(Br)ccc3oc2=O)cc1OCC=C(C)C` : inhibition (INH) is 99

Item: Cc1c(C)c2c(c(C)c1O)CCC(C)(C(=O)O)O2 (configuration not stated) | inhibition (INH): 63

The molecule listed as `CC(C)=CCOc1ccc(-c2c(C)c3cc(Br)ccc3oc2=O)cc1OCC=C(C)C` has a reported inhibition (INH) of 92

// inhibition (INH) value for `O=c1oc2ccc(Br)cc2cc1-c1ccc(O)c(O)c1` : 26
